tested on: M21 human melanoma cells; test: M21 melanoma cell adhesion assay (αvβ3-dependent adhesion to human fibrinogen-coated plates); format: cell-based; settings: Homo sapiens, M21; read-out: M21 Melanoma Cells IC50
Where a name gives a salt, the structure may show the parent alone.
// boundary case: IC50 equal to 9 nM maps to no (0); strictly smaller maps to yes (1)

• Cc1ccc(O)c(C(CC(=O)O)NC(=O)CNC(=O)c2cccc(NC(=N)N)c2)c1 (racemic) [Example 88, trifluoroacetate salt] = no (0)
• N=C(N)Nc1cccc(C(=O)NCC(=O)NC(CC(=O)O)c2ccccc2)c1 (racemic) [Example 4, trifluoroacetate salt] = yes (1)
• N=C(N)Nc1cccc(C(=O)NCC(=O)NC(CCS(=O)(=O)c2ccccc2C(=O)O)CC(=O)O)c1 (racemic) [60(C)] = yes (1)
• O=C(O)CC(NC(=O)CNC(=O)c1cccc(NC(=O)NCc2ccccc2)c1)c1cccnc1 (racemic) [Example 47, hydrochloride salt] = yes (1)
• N=C(N)Nc1cccc(C(=O)NCC(=O)NC(CC(=O)O)c2cc(C(F)(F)F)cc(C(F)(F)F)c2)c1 (racemic) [Example 36, trifluoroacetate salt] = no (0)
• N=C(N)Nc1cccc(C(=O)NCC(=O)NC(CC(=O)O)c2cccs2)c1 (racemic) [Example 61, trifluoroacetate salt] = no (0)
• CCOC(=O)CC(NC(=O)CNC(=O)c1cccc(NC(=N)N)c1)c1ccccc1 (racemic) [Example 3, trifluoroacetate salt] = no (0)
• N=C(N)Nc1cccc(C(=O)NCC(=O)NC(CC(=O)O)c2ccoc2)c1 (racemic) [Example 52, trifluoroacetate salt] = no (0)
• N=C(NCc1ccccc1)Nc1cccc(C(=O)NCC(=O)NC(CC(=O)O)c2cccnc2)c1 (racemic) [Example 24] = no (0)
• N=C(N)Nc1cccc(C(=O)NCC(=O)NCCC(=O)O)c1 [Example 97] = no (0)
• O=C(O)CC(NC(=O)CNC(=O)c1cccc(NC2=NCCCCC2)c1)c1ccc2c(c1)OCO2 (racemic) [Example 14, TFA salt] = yes (1)
• N=C(N)Nc1cccc(C(=O)NCC(=O)NC(CC(=O)O)c2ccc3ccccc3c2)c1 (racemic) [Example 56, trifluoroacetate salt] = yes (1)
• N=C(N)Nc1cccc(C(=O)NCC(=O)N[C@@H](CC(=O)O)CS(=O)(=O)c2ccccc2C(=O)O)c1 [Example 71, TFA salt] = no (0)
• O=C(O)CC(NC(=O)CNC(=O)c1cccc(NC2=NCCN2)c1)c1cccnc1 (racemic) [Example 10] = yes (1)
• O=C(O)CC(NC(=O)CNC(=O)c1cccc(NC2=NCCCCC2)c1)c1cccnc1 (racemic) [Example 12] = no (0)
• N=C(N)Nc1cc(C(=O)NCC(=O)NC(CC(=O)O)c2cccnc2)c2ccccc2c1 (racemic) [Example 8] = yes (1)

The reported numbers originate from patent US6831199B1.
